- Protocol text: total protein half-life in vivo (active degradation + dilution); higher = more stable protein
- Conditions used: E. coli NCM3722 delta-hslV; growth: N-lim chemostat; doubling time 6 h
Readout kind: total protein half-life in vivo (h)

Residue sequence | Recorded value
MKCKRLNEVIELLQPAWQKEPDLNLLQFLQKLAKESGFDGELADLTDDILIYHLKMRDSAKDAVIPGLQKDYEEDFKTALLRARGVIKE [P0ADP9] | 3.81
MRQTKTGILLANLGTPDAPTPEAVKRYLKQFLSDRRVVDTSRLLWWPLLRGVILPLRSPRVAKLYASVWMEGGSPLMVYSRQQQQALAQRLPEMPVALGMSYGSPSLESAVDELLAEHVDHIVVLPLYPQFSCSTVGAVWDELARILARKRSIPGISFIRDYADNHDYINALANSVRASFAKHGEPDLLLLSYHGIPQRYADEGDDYPQRCRTTTRELASALGMAPEKVMMTFQSRFGREPWLMPYTDETLKMLGEKGVGHIQVMCPGFAADCLETLEEIAEQNREVFLGAGGKKYEYIPALNATPEHIEMMANLVAAYR | 6.43
MKIFLENLYHSDCYFLPIRDNQQVLVGVELITHFSSEDGTVRIPTSRVIAQLTEEQHWQLFSEQLELLKSCQHFFIQHKLFAWLNLTPQVATLLLERDNYAGELLKYPFIELLINENYPHLNEGKDNRGLLSLSQVYPLVLGNLGAGNSTMKAVFDGLFTRVMLDKSFIQQQITHRSFEPFIRAIQAQISPCCNCIIAGGIDTAEILAQITPFDFHALQGCLWPAVPINQITTLVQR | 3.9
MKLFYKPGACSLASHITLRESGKDFTLVSVDLMKKRLENGDDYFAVNPKGQVPALLLDDGTLLTEGVAIMQYLADSVPDRQLLAPVNSISRYKTIEWLNYIATELHKGFTPLFRPDTPEEYKPTVRAQLEKKLQYVNEALKDEHWICGQRFTIADAYLFTVLRWAYAVKLNLEGLEHIAAFMQRMAERPEVQDALSAEGLK [P0A9D2] | 4.81
MIEWQDLHHSELSVSQLYALLQLRCAVFVVEQNCPYQDIDGDDLTGDNRHILGWKNDELVAYARILKSDDDLEPVVIGRVIVSEALRGEKVGQQLMSKTLETCTHHWPDKPVYLGAQAHLQNFYQSFGFIPVTEVYEEDGIPHIGMAREVIQA [P0AEH3] | 3.93
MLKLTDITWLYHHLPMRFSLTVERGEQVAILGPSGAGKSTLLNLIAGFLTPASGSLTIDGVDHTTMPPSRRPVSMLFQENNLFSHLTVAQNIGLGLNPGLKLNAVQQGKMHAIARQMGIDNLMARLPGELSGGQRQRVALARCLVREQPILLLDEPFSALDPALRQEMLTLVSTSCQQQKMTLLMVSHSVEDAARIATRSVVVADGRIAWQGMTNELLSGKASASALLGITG | 6.21
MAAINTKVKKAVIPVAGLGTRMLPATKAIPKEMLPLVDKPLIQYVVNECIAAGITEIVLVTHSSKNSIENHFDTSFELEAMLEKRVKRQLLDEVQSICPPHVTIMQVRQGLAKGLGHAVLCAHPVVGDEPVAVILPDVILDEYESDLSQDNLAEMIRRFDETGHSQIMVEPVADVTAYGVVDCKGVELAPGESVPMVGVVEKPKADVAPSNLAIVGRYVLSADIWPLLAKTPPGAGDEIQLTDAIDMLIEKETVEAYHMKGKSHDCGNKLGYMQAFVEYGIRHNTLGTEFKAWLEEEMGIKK [P0AEP3] | 4.91
MKRMIALDGAQGEGGGQILRSALSLSMITGQPFTITSIRAGRAKPGLLRQHLTAVKAATEICGATVEGAELGSQRLLFRPGTVRGGDYRFAIGSAGSCTLVLQTVLPALWFADGPSRVEVSGGTDNPSAPPADFIRRVLEPLLAKIGIHQQTTLLRHGFYPAGGGVVATEVSPVASFNTLQLGERGNIVQMRGEVLLAGVPRHVAEREIATLAGSFSLHEQNIHNLPRDQGPGNTVSLEVESENITERFFVVGEKRVSAEVVAAQLVKEVKRYLASTAAVGEYLADQLVLPMALAGAGEFTVAHPSCHLLTNIAVVERFLPVRFSLIETDGVTRVSIE | 5.05
MTAPLTLLIVEDETPLAEMHAEYIRHIPGFSQILLAGNLAQARMMIERFKPGLILLDNYLPDGRGINLLHELVQAHYPGDVVFTTAASDMETVSEAVRCGVFDYLIKPIAYERLGQTLTRFRQRKHMLESIDSASQKQIDEMFNAYARGEPKDELPTGIDPLTLNAVRKLFKEPGVQHTAETVAQALTISRTTARRYLEYCASRHLIIAEIVHGKVGRPQRIYHSG [P0AEF4] | 3.43
MVSRYVPDMGDLIWVDFDPTKGSEQAGHRPAVVLSPFMYNNKTGMCLCVPCTTQSKGYPFEVVLSGQERDGVALADQVKSIAWRARGATKKGTVAPEELQLIKAKINVLIG [P0AE70] | 6.26
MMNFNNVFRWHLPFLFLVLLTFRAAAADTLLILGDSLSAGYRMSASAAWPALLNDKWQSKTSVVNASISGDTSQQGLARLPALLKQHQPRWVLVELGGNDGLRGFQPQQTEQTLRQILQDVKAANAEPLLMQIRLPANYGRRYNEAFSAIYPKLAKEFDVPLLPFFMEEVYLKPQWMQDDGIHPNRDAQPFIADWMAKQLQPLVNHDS [P0ADA1] | 6.43
MTDLIQRPRRLRKSPALRAMFEETTLSLNDLVLPIFVEEEIDDYKAVEAMPGVMRIPEKHLAREIERIANAGIRSVMTFGISHHTDETGSDAWREDGLVARMSRICKQTVPEMIVMSDTCFCEYTSHGHCGVLCEHGVDNDATLENLGKQAVVAAAAGADFIAPSAAMDGQVQAIRQALDAAGFKDTAIMSYSTKFASSFYGPFREAAGSALKGDRKSYQMNPMNRREAIRESLLDEAQGADCLMVKPAGAYLDIVRELRERTELPIGAYQVSGEYAMIKFAALAGAIDEEKVVLESLGSIKRAGADLIFSYFALDLAEKKILR [P0ACB2] | 4.92
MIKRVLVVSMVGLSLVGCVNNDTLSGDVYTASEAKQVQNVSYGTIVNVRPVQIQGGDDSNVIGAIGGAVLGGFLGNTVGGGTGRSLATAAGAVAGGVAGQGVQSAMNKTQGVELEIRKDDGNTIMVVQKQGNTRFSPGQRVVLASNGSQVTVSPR [P0A905] | 6.11
